assay-overview: Ratio of IC50 for BuChE in human plasma to IC50 for AChE in Wistar rat brain cortex
Assay type: cell-free

smiles-notation: COc1ccc(-c2nc(-c3ccccc3)c(-c3ccccc3)n2CCCCCCCNc2c3c(nc4ccccc24)CCCC3)cc1
Ratio IC50: 0.9

smiles-notation: c1ccc(-c2nc(-c3ccccc3)n(CCCCCCCNc3c4c(nc5ccccc35)CCCC4)c2-c2ccccc2)cc1
Ratio IC50: 1.1

smiles-notation: Clc1ccc(-c2nc(-c3ccccc3)c(-c3ccccc3)n2CCCCCCCNc2c3c(nc4ccccc24)CCCC3)cc1
Ratio IC50: 0.6

smiles-notation: Fc1ccc(-c2nc(-c3ccccc3)c(-c3ccccc3)n2CCCCCCCCNc2c3c(nc4ccccc24)CCCC3)cc1
Ratio IC50: 2.2

smiles-notation: O=[N+]([O-])c1ccc(-c2nc(-c3ccccc3)c(-c3ccccc3)n2CCCCCCCNc2c3c(nc4ccccc24)CCCC3)cc1
Ratio IC50: 1

smiles-notation: Fc1ccc(-c2nc(-c3ccccc3)c(-c3ccccc3)n2CCCCCCCNc2c3c(nc4ccccc24)CCCC3)cc1
Ratio IC50: 1.7

smiles-notation: Clc1ccc(-c2nc(-c3ccccc3)c(-c3ccccc3)n2CCCCCCCCNc2c3c(nc4ccccc24)CCCC3)cc1
Ratio IC50: 18.5

smiles-notation: COc1ccc(-c2nc(-c3ccccc3)c(-c3ccccc3)n2CCCCCCCCNc2c3c(nc4ccccc24)CCCC3)cc1
Ratio IC50: 0.6

----------
Examples of molecules with documented pIC50 follow.
study-target: Acetylcholinesterase (Rattus norvegicus, UniProt P37136)
Sequence (P37136 whole entry): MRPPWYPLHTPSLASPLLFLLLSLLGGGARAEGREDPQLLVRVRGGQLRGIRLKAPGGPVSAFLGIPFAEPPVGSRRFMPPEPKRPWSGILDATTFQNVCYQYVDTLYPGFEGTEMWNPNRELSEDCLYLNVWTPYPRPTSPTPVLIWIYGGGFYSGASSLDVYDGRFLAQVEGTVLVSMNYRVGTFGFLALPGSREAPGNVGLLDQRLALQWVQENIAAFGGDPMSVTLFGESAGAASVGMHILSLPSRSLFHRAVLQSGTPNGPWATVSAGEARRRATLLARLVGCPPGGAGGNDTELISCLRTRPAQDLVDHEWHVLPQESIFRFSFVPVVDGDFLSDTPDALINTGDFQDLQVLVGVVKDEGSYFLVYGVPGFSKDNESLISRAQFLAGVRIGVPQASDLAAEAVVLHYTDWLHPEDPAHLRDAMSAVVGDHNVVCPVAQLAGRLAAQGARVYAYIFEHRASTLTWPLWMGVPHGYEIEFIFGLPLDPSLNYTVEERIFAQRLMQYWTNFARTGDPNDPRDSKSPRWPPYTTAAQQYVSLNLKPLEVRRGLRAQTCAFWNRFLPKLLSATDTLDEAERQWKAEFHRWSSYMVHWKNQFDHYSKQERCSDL
assay-overview: Inhibition of AChE in Wistar rat brain cortex using acetylthiocholine iodide as substrate by Ellman's colorimetric method
experimental-parameters: read-out: IC50
pIC50: −log10 of the molar value.

smiles-notation: Fc1ccc(-c2nc(-c3ccccc3)c(-c3ccccc3)n2CCCCCCCCNc2c3c(nc4ccccc24)CCCC3)cc1
pIC50: 7.59
//
smiles-notation: c1ccc(-c2nc(-c3ccccc3)n(CCCCCCCCn3c(-c4ccccc4)nc(-c4ccccc4)c3-c3ccccc3)c2-c2ccccc2)cc1
pIC50: 7.37
//
smiles-notation: c1ccc(-c2nc(-c3ccccc3)n(CCCCCCCNc3c4c(nc5ccccc35)CCCC4)c2-c2ccccc2)cc1
pIC50: 7.09
//
smiles-notation: COc1ccc(-c2nc(-c3ccccc3)c(-c3ccccc3)n2CCCCCCCNc2c3c(nc4ccccc24)CCCC3)cc1
pIC50: 7.16
//
smiles-notation: Fc1ccc(-c2nc(-c3ccccc3)c(-c3ccccc3)n2CCCCCCCNc2c3c(nc4ccccc24)CCCC3)cc1
pIC50: 7.41

----------
study-target: Acetylcholinesterase (Rattus norvegicus)
assay-overview: Inhibition of AChE in Wistar rat brain cortex using acetylthiocholine iodide as substrate by Ellman's colorimetric method
recorded-metric: IC50

smiles-notation: c1ccc(-c2nc(-c3ccccc3)n(CCCCCCCn3c(-c4ccccc4)nc(-c4ccccc4)c3-c3ccccc3)c2-c2ccccc2)cc1
recorded-metric: IC50
value-reported: Not Active
--
smiles-notation: c1ccc(-c2nc(-c3ccccc3)n(CCCCCCCCCCn3c(-c4ccccc4)nc(-c4ccccc4)c3-c3ccccc3)c2-c2ccccc2)cc1
recorded-metric: IC50
value-reported: Not Active
--
smiles-notation: O=[N+]([O-])c1ccc(-c2nc(-c3ccccc3)c(-c3ccccc3)n2CCCCCCNc2c3c(nc4ccccc24)CCCC3)cc1
recorded-metric: IC50
value-reported: Not Active
